Organism: Rattus norvegicus
method description: DrugMatrix - Regimen: Daily Repeat
Type: toxicity, organism-based, Sprague-Dawley
Design: regimen Daily Repeat, gender Male, age 6-8 weeks
details: in vivo, iv, 0 mg/kg, 120 h, tissue Plasma, dose level Control, time 5 day, vehicle 100 % SALINE
Quick reference: ALBUMIN of the listed items.
Numbers only here, please. The scale is G/DL.

Worked examples, 4 molecules total:
1) C[N+](C)(C)CCOC(=O)CCC(=O)OCC[N+](C)(C)C.[Cl-].[Cl-] [SUCCINYLCHOLINE CHLORIDE] :: 4.25
2) O=c1[nH]c(=O)n([C@H]2C[C@H](O)[C@@H](CO)O2)cc1F :: 4.15
3) N=C(N)c1ccc(OCCCCCOc2ccc(C(=N)N)cc2)cc1 :: 4.25
4) COc1cccc2c1C(=O)c1c(O)c3c(c(O)c1C2=O)C[C@@](O)(C(C)=O)C[C@@H]3O[C@H]1C[C@H](N)[C@H](O)[C@H](C)O1 :: 4.12

Moving on to another molecule below.
Exam item: Find the recorded ALBUMIN belonging to O=C(O)P(=O)(O)O and report it.
Marked response: 4.22

* * *

Species: Rattus norvegicus
method description: DrugMatrix - Regimen: Daily Repeat
Type: toxicity, organism-based, Sprague-Dawley
Set-up: regimen Daily Repeat, gender Male, age 6-8 weeks
details: in vivo, ip, 0.5 mg/kg, 120 h, tissue Blood, route intraperitoneal, dose level High, time 5 day, vehicle 100 % SALINE
observation type: ABSOLUTE LYMPHOCYTE

Exam item: Find the recorded ABSOLUTE LYMPHOCYTE belonging to TRANSPLATIN and report it.
Marked response: 10800 cells/µL

* * *

Quick reference: LIPASE of the listed items.
Species on record: Rattus norvegicus
method description: DrugMatrix - Regimen: Daily Repeat
Type: toxicity, organism-based, Sprague-Dawley
Design: regimen Daily Repeat, gender Male, age 6-8 weeks
details: in vivo, iv, 0 mg/kg, 120 h, tissue Plasma, dose level Control, time 5 day, vehicle 100 % SALINE
Numbers only here, please. The scale is u/L.

Worked examples, 4 compounds total:
1. O=C(O)P(=O)(O)O :: 8.67
2. N=C(N)c1ccc(OCCCCCOc2ccc(C(=N)N)cc2)cc1 :: 8.83
3. COc1cccc2c1C(=O)c1c(O)c3c(c(O)c1C2=O)C[C@@](O)(C(C)=O)C[C@@H]3O[C@H]1C[C@H](N)[C@H](O)[C@H](C)O1 :: 10.83
4. O=c1[nH]c(=O)n([C@H]2C[C@H](O)[C@@H](CO)O2)cc1F :: 10.33

Moving on to another compound below.
Exam item: Find the recorded LIPASE belonging to C[N+](C)(C)CCOC(=O)CCC(=O)OCC[N+](C)(C)C.[Cl-].[Cl-] [SUCCINYLCHOLINE CHLORIDE] and report it.
Marked response: 8.83

* * *

Organism: Rattus norvegicus
method description: DrugMatrix - Regimen: Daily Repeat
Format: toxicity, organism-based, Sprague-Dawley
Design: regimen Daily Repeat, gender Male, age 6-8 weeks
details: in vivo, ip, 10 mg/kg, […], tissue Blood, route intraperitoneal, dose level High, time 28 day, vehicle 100 % SALINE
observation type: ABSOLUTE EOSINOPHIL (cells/µL)
Numbers only here, please. The scale is cells/µL.

Exam item: Find the recorded ABSOLUTE EOSINOPHIL belonging to COBALTOUS CHLORIDE and report it.
Marked response: 160

* * *

Quick reference: NUCLEATED RED BLOOD CELLS of the listed items.
Organism: Rattus norvegicus
method description: DrugMatrix - Regimen: Daily Repeat
Format: toxicity, organism-based, Sprague-Dawley
Set-up: regimen Daily Repeat, gender Male, age 6-8 weeks
details: in vivo, po, 0 mg/kg, 120 h, tissue Blood, route oral GAVAGE, dose level Control, time 5 day, […]

Worked examples, 3 molecules total:
1. CC(=O)Oc1ccccc1C(=O)O [ASPIRIN] :: 0 /100WBC
2. CS(=O)(=O)Nc1ccc([N+](=O)[O-])cc1Oc1ccccc1 [NIMESULIDE] :: 0.33 /100WBC
3. CCc1ccc(CCOc2ccc(CC3SC(=O)NC3=O)cc2)nc1 (stereo unspecified) [PIOGLITAZONE] :: 0 /100WBC

Exam item: Find the recorded NUCLEATED RED BLOOD CELLS belonging to O=c1c(-c2ccc(O)cc2)coc2cc(O)cc(O)c12 [GENISTEIN] and report it.
Marked response: 0.17 /100WBC

Exam item: Find the recorded NUCLEATED RED BLOOD CELLS belonging to CC(C)c1c(C(=O)Nc2ccccc2)c(-c2ccccc2)c(-c2ccc(F)cc2)n1CC[C@@H](O)C[C@@H](O)CC(=O)O [ATORVASTATIN] and report it.
Marked response: 0.17 /100WBC

Exam item: Find the recorded NUCLEATED RED BLOOD CELLS belonging to CCCCC(=O)N(Cc1ccc(-c2ccccc2-c2nnn[nH]2)cc1)[C@H](C(=O)O)C(C)C and report it.
Marked response: 0 /100WBC

* * *

Quick reference: ABSOLUTE MONOCYTE of the listed items.
Species: Rattus norvegicus
method description: DrugMatrix - Regimen: Daily Repeat
Type: toxicity, organism-based, Sprague-Dawley
Set-up: regimen Daily Repeat, gender Male, age 6-8 weeks
details: in vivo, iv, 0 mg/kg, 120 h, tissue Blood, dose level Control, time 5 day, vehicle 100 % SALINE
Numbers only here, please. The scale is CELLS/uL.

Worked examples, 4 compounds total:
1. C[N+](C)(C)CCOC(=O)CCC(=O)OCC[N+](C)(C)C.[Cl-].[Cl-] [SUCCINYLCHOLINE CHLORIDE] :: 576
2. COc1cccc2c1C(=O)c1c(O)c3c(c(O)c1C2=O)C[C@@](O)(C(C)=O)C[C@@H]3O[C@H]1C[C@H](N)[C@H](O)[C@H](C)O1 :: 69.83
3. N=C(N)c1ccc(OCCCCCOc2ccc(C(=N)N)cc2)cc1 :: 576
4. O=c1[nH]c(=O)n([C@H]2C[C@H](O)[C@@H](CO)O2)cc1F :: 30

Moving on to another compound below.
Exam item: Find the recorded ABSOLUTE MONOCYTE belonging to O=C(O)P(=O)(O)O and report it.
Marked response: 352.67

* * *

Species on record: Rattus norvegicus
method description: DrugMatrix - Regimen: Daily Repeat
Type: toxicity, organism-based, Sprague-Dawley
Parameters: regimen Daily Repeat, gender Male, age 6-8 weeks
details: in vivo, po, 0 mg/kg, 72 h, tissue Plasma, route oral GAVAGE, dose level Control, time 3 day, vehicle .5 % CMC
Quick reference: POTASSIUM of the listed items.
Numbers only here, please. The scale is MEQ/L.

1) CCOc1nc2cccc(C(=O)O)c2n1Cc1ccc(-c2ccccc2-c2nnn[nH]2)cc1 :: 6.81

Exam item: Find the recorded POTASSIUM belonging to COc1ccc2c(c1OC)C(=O)O[C@@H]2[C@H]1c2c(cc3c(c2OC)OCO3)CCN1C and report it.
Marked response: 7

Exam item: Find the recorded POTASSIUM belonging to CCCNC(=O)NS(=O)(=O)c1ccc(Cl)cc1 [CHLORPROPAMIDE] and report it.
Marked response: 6.78

Exam item: Find the recorded POTASSIUM belonging to CCCCC1=NC2(CCCC2)C(=O)N1Cc1ccc(-c2ccccc2-c2nnn[nH]2)cc1 and report it.
Marked response: 5.65

Exam item: Find the recorded POTASSIUM belonging to CCC1=C(C)CN(C(=O)NCCc2ccc(S(=O)(=O)NC(=O)N[C@H]3CC[C@H](C)CC3)cc2)C1=O [GLIMEPIRIDE] and report it.
Marked response: 6.21

Exam item: Find the recorded POTASSIUM belonging to CN1CCN(C2=Nc3cc(Cl)ccc3Nc3ccccc32)CC1 and report it.
Marked response: 6.78

Exam item: Find the recorded POTASSIUM belonging to C[C@@](Cc1ccc(O)c(O)c1)(NN)C(=O)O.O and report it.
Marked response: 6.33

Exam item: Find the recorded POTASSIUM belonging to NC(=O)N1c2ccccc2CC(=O)c2ccccc21 [OXCARBAZEPINE] and report it.
Marked response: 7.13

* * *

Organism: Rattus norvegicus
method description: DrugMatrix - Regimen: Daily Repeat
Format: toxicity, organism-based, Sprague-Dawley
Parameters: regimen Daily Repeat, gender Male, age 6-8 weeks
details: in vivo, po, 0 mg/kg, 72 h, tissue Blood, route oral GAVAGE, dose level Control, time 3 day, […]
Quick reference: HEMOGLOBIN of the listed items.
Numbers only here, please. The scale is G/DL.

1. CC(=O)Oc1ccccc1C(=O)O :: 12.98

Exam item: Find the recorded HEMOGLOBIN belonging to CS(=O)(=O)Nc1ccc([N+](=O)[O-])cc1Oc1ccccc1 [NIMESULIDE] and report it.
Marked response: 13.43

Exam item: Find the recorded HEMOGLOBIN belonging to CC(C)c1c(C(=O)Nc2ccccc2)c(-c2ccccc2)c(-c2ccc(F)cc2)n1CC[C@@H](O)C[C@@H](O)CC(=O)O and report it.
Marked response: 12.87
